# assayName: amyloid nucleation score (Sup35N fusion, yeast selection) (log enrichment); library NNK2; higher = more nucleation; inactive = no reads after selection;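 also: zero at mode of non-aggregating sequences after 7 days selection at 30°C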
# if value of amyloid nucleation score reaches -0.04, tag true (1); if it stays below, tag false (0)

>  <substance>
TKTTWSDPGG

>  <classAssignment>
true (1)

$$$$
>  <substance>
TYGLWRFGTRGKDEFKSPNR

>  <classAssignment>
true (1)

$$$$
>  <substance>
FLIVPKILNICL

>  <classAssignment>
true (1)

$$$$
>  <substance>
SVEMRTNLTAGWRILIRWSS

>  <classAssignment>
true (1)

$$$$
>  <substance>
FYEYTDTASAGPDETLYLRN

>  <classAssignment>
true (1)

$$$$
>  <substance>
RLTVRWAYMSLLTVGQGGIM

>  <classAssignment>
true (1)

$$$$
>  <substance>
FRGLYRARNGVIKRMGLGWH

>  <classAssignment>
true (1)

$$$$
>  <substance>
VKVHSIESGGLRPWCVGASV

>  <classAssignment>
true (1)

$$$$

Query: Identify whether the reported amyloid nucleation score of the following substance is -0.04 or greater: QRDDVISRCVYHYFKVVPGA
Response: false (0)

Query: Identify whether the reported amyloid nucleation score of the following substance is -0.04 or greater: SFLWLSMFVESAQVVNLQLY
Response: true (1)

Hello, the source for this data is the supplement of paper PMC12042874, in case you need it.
